Assay: Oral rat 4-week toxicity study with toxicokinetics
Format: in vivo, Sprague-Dawley rats
Conditions: both sexes, Sprague-Dawley, in vivo, oral; 4-week Rat toxicology
value-type: NOAEL at 28 days (mg/kg)
Expressed in mg/kg, but write only the number.

Give NOAEL at 28 days for `C=CC(=O)Nc1cc(Nc2nccc(-n3ccc4cccnc43)n2)c(OC)cc1N(C)CCN(C)C` 10

----------
Test: Plasma, brain and lung levels after 7 days oral dosing
Assay type: in vivo, Sprague Dawley Rats
Conditions: Sprague Dawley, rat, brain; 10 mg/kg po qd 7 days, 24 hrs after last dosing, Male; read-out: Brain
value-type: concentration at 24 h
Please state the number and follow it with the unit.

Give concentration at 24 h for `C=CC(=O)Nc1cc(Nc2nccc(-n3ccc4cccnc43)n2)c(OC)cc1N(C)CCN(C)C` 14.9 ng/g
